The following are reported log10 IC50 results, target or system calf intestinal alkaline phosphatase (CIAP) (Bos taurus, UniProt P19111).
Endpoint: log10 IC50 (log10 of the value in µM)

{"Molecule": "CCOC(=O)C=C1SC(N2N=C(c3ccccc3)CC2c2ccc(C)cc2)=NC1=O (stereo not drawn)", "Endpoint": "log10 IC50", "Observed": 0.36}
{"Molecule": "CCOC(=O)C=C1SC(N2N=C(c3ccc(OC)cc3)CC2c2ccc(Br)cc2)=NC1=O (stereo not drawn)", "Endpoint": "log10 IC50", "Observed": -0.04}
{"Molecule": "CCOC(=O)C=C1SC(N2N=C(c3ccc(OC)cc3)CC2c2ccc(Cl)cc2Cl)=NC1=O (stereo not drawn)", "Endpoint": "log10 IC50", "Observed": -0.25}
{"Molecule": "CCOC(=O)C=C1SC(N2N=C(c3ccccc3)CC2c2ccc(Br)cc2)=NC1=O (stereo not drawn)", "Endpoint": "log10 IC50", "Observed": -1.28}
{"Molecule": "CCOC(=O)C=C1SC(N2N=C(c3ccc(OC)cc3)CC2c2ccc(C)cc2)=NC1=O (stereo not drawn)", "Endpoint": "log10 IC50", "Observed": -0.64}
{"Molecule": "CCOC(=O)C=C1SC(N2N=C(c3ccccc3)CC2c2ccc(OC)cc2)=NC1=O (stereo not drawn)", "Endpoint": "log10 IC50", "Observed": -0.70}
